experiment: yeast display, Sf9 membrane polyspecificity reagent, FACS + sequencing; frameworks hold sequencing errors
measureName: polyreactivity (PSR sort gate)

residueCodes	measureName	result
QVQLVESGGGLVQAGGSLRISCAASGSTFSRNAMVWYRQAPGKERELVATISRSGRTNYADSVKGRFTISRDNAKNTVYLQMNSLKPEDTAVYYCNAGYRRSYEYWGQCTQVTVSS	polyreactivity (PSR sort gate)	low polyreactivity
QVQLVESGGGLVQAGGSLRLSCAASGFTFGYYAMGWYRQAPGKERELVAAISASGASTYYADSVKGRFTISRDNAKNTVYLQMNSLKPEDTAVYYCAARPGQLTSPVTRTRYNYWGQGTQVTVSS	polyreactivity (PSR sort gate)	low polyreactivity
QVQLVESGGGLVQAGGSLRISCAASGNICSWYAMGWSRQAPGKERELVAAIRWSSGSTYYADSVKWRFTISRDNAKNTVYLQMNSMKPEDTAVYYCAAVIKGWGQGTQVTVSS	polyreactivity (PSR sort gate)	high polyreactivity
QVQRVESGGGLVQAGGSLRLSCAASGRTFYLNAMGWYRQATGKERQLVAAINRGTRTYYADSVKGRFTISRDNAKNTVYLQMNSVKPEDTAVYYCAAVPRYYYSSSYTMDYWGQGTQVTVSS	polyreactivity (PSR sort gate)	high polyreactivity
QVQLVETGGGLVQAGGSLRISCAASGLTFYLYAMGWYRQSPGKERELVAAISSTGITNYADSVKGRFTISRDNAKNTVYLQMNSLNPEDTAVYYCNADYHPFFFEFNDWGQGTQVTVSS	polyreactivity (PSR sort gate)	high polyreactivity
QVHLVESGGGLVQAGGSLRLSCAASGITFRFNAMGLSRQAPGKEMEFVAAITYSGDSTYYADSLKVRFTISRDNAKNSVYLHLKSVKPEDTAVYYCAAEYYAISRRIFYYWGQGTQVTVSS	polyreactivity (PSR sort gate)	low polyreactivity
QVHLVESGGGLVQAGGRLRLSCAASGRIFGTNAMGWYRQAPGKERELVATITRGGGNTYYADSVKGRFTISRDKAKNTVYLQRNSLKPEDTAVYYCAAKFHRFAWFSHYDYWGQGTQVTVSS	polyreactivity (PSR sort gate)	low polyreactivity
QVQLVESGGGLVQAGGSLRLSCAASGITFPFYAMGWYRQAPGKERELVAGITSGGSTYYADSVKGRFTISRDNAKNTVYLQMNSLKPEDTAVYYCAAPFYRQSLIEYDFWGQGTQVTVSS	polyreactivity (PSR sort gate)	high polyreactivity
QVQLVESGGGLVQAGGSLRLSCAASGLTFYLYAMGWYRQAPGKERELVAAITTSGGSTYYADSVKGRFTISRDNAKNTVYLQMNSLKPEDTAVYDCATQGAIRGYGYWGQGTQVTVSS	polyreactivity (PSR sort gate)	high polyreactivity
QVQLVESGGGLVQAGGSLRLSCAASGSIFYRYAMGWYRQAPGKERELVSSISSGVSTNYADYVKGRFTISRDNAKNTVYLQINSLKREDTAVYYWAAYYRGWSSSYWFPAYNYWGQGTQVTVSS	polyreactivity (PSR sort gate)	low polyreactivity
QVQLVESGGGLVQAGGSLSLSCAASGRTFDDNAMGWYRQAPGKERELVAAISSTGSTNYADSLKGRFTISRDNAKNTVYLQMNSLKPEDTAVYYCNTDGGHERAYYYWGQCTQVTVSS	polyreactivity (PSR sort gate)	low polyreactivity
